# target.or.system: human islet amyloid polypeptide (wt hIAPP) (Homo sapiens)
# Construct: gene IAPP; 37-residue synthetic peptide, amidated C-terminus, Cys-2/Cys-7 disulfide, monomeric
# Sequence (P10997 34-70 limits assumed): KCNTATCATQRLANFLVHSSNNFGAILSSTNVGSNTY
# method: Tyr37 fluorescence quenching titration; also native ESI-MS, SPR (Kd […]), 2D NMR CSPs and ThT aggregation inhibition
# Type: binding
pKd: −log10 of the molar value.

[
  {
    "compound.string": "CC(=O)N[C@H]1C[C@@H](c2ccc(NC(=O)Cn3nnc4ccccc43)cc2)O[C@@H](C(C)C)C1",
    "pKd": 4.49
  }
]
